The values you see were collected from the nanobody polyreactivity screen of Harvey et al. (2022).

Assay Info: yeast display, Sf9 membrane polyspecificity reagent, FACS + sequencing; frameworks hold sequencing errors
Attribute Measured: polyreactivity (PSR sort gate)

Below are worked cases with known answers.
[[record]]
sequence_string = "QVQLVESGGGLVQAGGSLRLSCAASGYIFARYAMGWYRQAPGKERELVASISRRGTSTYYADSVKGRFTISRDNAKNTDYLQMNSLKPEDTAVYYCNKEYYIYRTGTIGERSDMGYWGQGTQVTVSS"
result = "high polyreactivity"

[[record]]
sequence_string = "QVQLVETGGVLVQAGGSLRLSCAASGRIFPPNAMGWSRQAPGKEREFVASINRSGGRTYYADSVKGRFTISRDNAKNTVYLQMNSLKPEDTAVYYCAATGGYSCPLGVSWKYEYWGQGNQVTVSS"
result = "low polyreactivity"

[[record]]
sequence_string = "QVQLVESGGGLVQAGGSLRLSCAASGFTFQFYAMGWYRQAPGKESELVASIRSGVGTYYADSVKGRFTISRDNAKNTVYLQMYCVKPEDTAVYYCNAVYNRFSRSYDYWGQGTQVTVSS"
result = "high polyreactivity"

[[record]]
sequence_string = "QVQLVESGGALVQAGGSLRLSCAASGITFARNAMGWYRQAPGKERELVAVISTRGGRTYYADSVKGRFTISRDNAKNTVYLQMNSLKPEDTAVYYCAASPDPYWRRMDYWGQGTQVTVSS"
result = "high polyreactivity"


**Q:** Provide polyreactivity (PSR sort gate) value for the following sequence: QVQLVESGGGLVQAGGSLRLSCAASGSIFRRNAMGWYRQAPGKERELVAAISIRGGSTYYADSVKGRFTISRDNAKNTVYLQMNSLKPEDTAVYYCNAKFRKADYDYWGQGTQVTVSS
**A:** high polyreactivity

**Q:** Entry QVQLVESGGGLVQAGGSLRLSCAASGRTFKYYAMGWYRQAPGKERELVAAISLSSGRTYYADSVKGRFTISRDIAKNTVYLQMNSLKPEDTAVYYCARVTTGGYEYWGQGTQVTVSS needs its polyreactivity (PSR sort gate) filled in; supply it.
**A:** high polyreactivity

**Q:** Return the recorded polyreactivity (PSR sort gate) value; entry: QVQLVESCGGLVQAGGSLRLSCAASGSTFAGYVMGWYRQAPGKERQFVAAISTSGGRTYYADSVKGRFTISRDNAKNTVYLQMNSLKPEDTAVYYCAARSVTYGGLGLYGYWGQGTQVTVSS
**A:** high polyreactivity

**Q:** Please list polyreactivity (PSR sort gate) recorded for the sequence QVQLVESGGGLVQAGGSLRLSCAASGRIFNYNAIGWYRQAPGKERELVAAITCSGGSTYYADSVKGRFTISRDNAQYNVYLQMNSLKPEDTAVYYCIALITYSSDYWGQGTQVTVSS
**A:** low polyreactivity

**Q:** Determine its reported polyreactivity (PSR sort gate): QVQLVETGGGLVQAGGSLRLSCAPSGRIFGIYAMGWYRQAPGKERELVASITDGTITNYADSVKGRFTISRDNAKNTVYLQMNSLKPVDTAVYYFAAGTQAHAYVVRPIEMDYWGQGTQVTVSS
**A:** low polyreactivity

**Q:** Read the entry QVQLVESGGGLVQAGGSLRLSCAASGITFEYYDMGWYRQAPGKERELVAAISWSTDITYADSVKGRFTISRDNAKNTVYLQLNSLKPEDTAVYYCAALGGLSDFWHLYDYWGQGTQVTVSS and write its reported polyreactivity (PSR sort gate).
**A:** low polyreactivity

**Q:** Give polyreactivity (PSR sort gate) for the following sequence: QVQLVESGGGLVQAGGSLRLSCAASGSTINYYAMGWYRQAPGKERELVAAISSGTSTYYADSVKGRFTISRDNAKNTVYLQMNSLKPEDTAVYYCARRYYYQYRYDYWGQGTQVTVSS
**A:** high polyreactivity

###

Assay Info: yeast display, Sf9 membrane polyspecificity reagent, FACS + sequencing; frameworks hold sequencing errors
Attribute Measured: polyreactivity (PSR sort gate)

[[record]]
sequence_string = "QVQLVESGGGLVQAGGSLRLSCAASGSIFVQYAMGWYRQAPGKERELVATISSSGGSTYYADSVKGRFTISRDNAKNTVYLQMNSLKPEDTAVYYCAADWTLDPSYGYYADDYWGQGTQVTVST"
attribute_measured = "polyreactivity (PSR sort gate)"
result = "low polyreactivity"

[[record]]
sequence_string = "QDQLVESGGGLVQAGGSLRLSCAASGIIFGAYAMGWYRQAPGKERELVAAISQSGGSTYYADSVKGRFTISRDNAKITVYLQMNSLKPEDTAVYYCNVDPDVILVTSYDYWGQGTQVTVSS"
attribute_measured = "polyreactivity (PSR sort gate)"
result = "low polyreactivity"

[[record]]
sequence_string = "QVQLVESGGGLVQAGGSLRLSCAASGSIFNPYDMGWYRQAPGKERELVAAIDWSGGSTYYADSVKGRFTISRDNAKNTVYLQMNSLKPEDTAVYYCNAESYQDTLFGADNDYDYWGQGTLVTVSS"
attribute_measured = "polyreactivity (PSR sort gate)"
result = "low polyreactivity"


###

Assay Info: yeast display, Sf9 membrane polyspecificity reagent, FACS + sequencing; frameworks hold sequencing errors
Attribute Measured: polyreactivity (PSR sort gate)

Please review the entries below; each comes with its answer.
[[record]]
sequence_string = "QVQLVESGGGLVQAGGSLRLICAASGNTFKYNAMGWYRQAPGKERELVAAITWRGTSTSYADSVKGRFTISRDNAKNTVYLQMNSLKAEDTAFYYSNAVYYWYGRVAYSFGYWGQGTQVTVSS"
attribute_measured = "polyreactivity (PSR sort gate)"
result = "high polyreactivity"

[[record]]
sequence_string = "QVQLVESGVGLVQAGVILRLSCAASGRTFRRNAMGWYRHAPGKERELVAAISWRGGSTYYADSVKGRFTISRDNAKNTVYLQLNSMKPEDTAVYYFAAGFESYDYWGQGTQVTVSS"
attribute_measured = "polyreactivity (PSR sort gate)"
result = "high polyreactivity"

[[record]]
sequence_string = "QVQLVESGGGLVQAGGSLRLSCAASGLTILDNAMGWYRQAPGKERELVATISGGGSTYYADSVKGRFTISRDNAKNTVYLQMNSLKPEDTAVYYWNAAYVGGPWWYRYTYNYWGQGTQVTVSS"
attribute_measured = "polyreactivity (PSR sort gate)"
result = "low polyreactivity"

[[record]]
sequence_string = "QVQVVESGGGLDQAGGSLRLSCAASGSIFQVYSMGWYRQAPGQERALVAAITWAAGSTYADSVKGRFTISRDNAKNTVYLQLKSLKPDDTAVYYCAAYPYVGYVTSSAYDYWGQGTQVTVSS"
attribute_measured = "polyreactivity (PSR sort gate)"
result = "low polyreactivity"

[[record]]
sequence_string = "QVQLVESGGGLVQAGGSLRLSCAASGFTFWAYAMGWYRQAPGKERELVAAISGSGGNTYYADSVKGRFTISRDNAKNTVYLQMNSLKPEDTAVYYCAVEDAGQGGDYWGQGTQVTVSS"
attribute_measured = "polyreactivity (PSR sort gate)"
result = "low polyreactivity"

[[record]]
sequence_string = "QVQLVESGGGLVQAGGSLRLSCAASAFTFKYNVMGWYRQAPGTERELLAAISKRGGNTYYADSVKGRFTISRDNAKNTVYLQMNSLKPEDTAVYYCAADPTSPETSGQGYDYWGQGTQVTVSS"
attribute_measured = "polyreactivity (PSR sort gate)"
result = "high polyreactivity"


// below: polyreactivity (PSR sort gate) requested for another sequence
**Q:** Check the records and state polyreactivity (PSR sort gate) for QVQLVESGGGLVQAGGSLRLSCAASGRIFHGYAMGWYRQAPGKERELVGAINSSGGSTYYADSVKGRFTISRDNAKNTVYLQMNSLKPQDTAVYYCAADWVVSGNNPTVDTYFWYEYWGQGTQVTVSS
**A:** low polyreactivity

###

Assay Info: yeast display, Sf9 membrane polyspecificity reagent, FACS + sequencing; frameworks hold sequencing errors
Attribute Measured: polyreactivity (PSR sort gate)

Examples with answers:
[[record]]
sequence_string = "QVHLVESGGGLVQAGGSLRLSCAASGRIFGPYAMGWYRQAPGKERELVASISGGGSTNYADSVKGRFTISRDNAKNTVYLQMNSLKPEDTAVYYCAADVYYQYWGWWPYDYWGQGTQVTVSS"
attribute_measured = "polyreactivity (PSR sort gate)"
result = "low polyreactivity"

[[record]]
sequence_string = "QVQLVESGGGLVQAGGSLRLSCAASGSIFPVYAMGWYRQAHGKVREFVASIRWRGGSTSYADSVKGRFTISRDNAKNTVYLQMNSLKPEETAVYYCNAVYYSWSQSARFDYWGQGTQVTVSS"
attribute_measured = "polyreactivity (PSR sort gate)"
result = "low polyreactivity"

[[record]]
sequence_string = "QVQLVESVGGLVQAGGSLRLSCAASGSIFFTYTMGWYRQAPGKERELVAAISSGGITNYADSVKGRFTISRDNAKKTVYFQMNSLKPEDTAVYYCAVDGGEFSSYGYWGQGTQVTVSS"
attribute_measured = "polyreactivity (PSR sort gate)"
result = "low polyreactivity"

[[record]]
sequence_string = "QVKLVESGGGLVQAGGSLRLSCAASGRIFSYNAMGGYRPEPGKESEVVAAMSDGGGRTYYADSVKGRFTISRDNAKNTVYVQMNSLKPEDTAVYYCAARYSVYYFGQRNGRYGYWGQGTQVTVSS"
attribute_measured = "polyreactivity (PSR sort gate)"
result = "high polyreactivity"

[[record]]
sequence_string = "QVQLVESGGGLVQAGGSLRLSCAASGNTFHTNAMGWYRQAPGKERELVAAITGGGSTYYADSVKGRFTISRDNAKNTVYLQMNSLKPEDTAVYYCNTDVPYGLDVSDTIDYYYWGQGTQVTVSS"
attribute_measured = "polyreactivity (PSR sort gate)"
result = "low polyreactivity"


**Q:** Give polyreactivity (PSR sort gate) for QVQLVESGGGLVQAGGSLRLSCAASGSIFWSNSMGWDRQAPGKERELDAAISQDGGSTNYADSVKGRFTISRDNAKNTVYLQMTSQKPEDTAVYYCAVKYWSYEPPSYSIEYGYWGQGTQVTVSS
**A:** low polyreactivity

**Q:** Identify polyreactivity (PSR sort gate) associated with the sequence QVQLVESGGGLVQAGGSLRLSCAASGIILYYYAMGRYRPAPGKERELVASISRGDSTNYADSVKGRFTISRDNAKNTVYLQMNSLIPEDTAVYCNKDYLPSLYRGFDYWGQGTQVTVSS
**A:** low polyreactivity

**Q:** Kindly indicate its recorded polyreactivity (PSR sort gate). Item: QVQLVESGGGLVQAGGSLRLSCAASGRTFEYYAMGWYRPAPGKERELVAAITYSGDSTYYADSVKGRFTISRDNAKNTVYLQMNSLKPEDTAVYYCAADWSSLKDDYWGQGTQVTVSS
**A:** low polyreactivity

**Q:** State, in one line, measured polyreactivity (PSR sort gate) of QVQHVESGGGLVQAGGSLRLSCAASGSTFSQYAMGWYRQAPGKERELVAAITRGGRTYYADSVKGRFTISRDNAKNTVYLQMNSLKPEDTAVYYCAARGGYRLRYIPYVRYDYWGQGTQVTVSS
**A:** high polyreactivity

**Q:** Specify polyreactivity (PSR sort gate) for QVQLVESGGGLVQAGGSLRLSCAASGRTLSWYAMGWYRQAPGKEREFVAAITSSGASTYYADSVKGRFTISRDNAKNTVYLQMNSLKPEDTAVYYCAAKMRGYPRRRYDYCGQGTQVTVSS and stop.
**A:** high polyreactivity

**Q:** Recall and state the measured polyreactivity (PSR sort gate) for QVQLVESGGGLVQAGGSLRLSCAASGRIFKIYSMGWYRQAPGKERELVAAISYRGTSTYYADSVKGRFTISRDNAKNTVYLQMNSLKPEDTAVYYCARRDTYTRYYWGQGTQVTVSS .
**A:** high polyreactivity
